From: patent US20060058366A1

For each of the compounds below, state its IC50.
target.system: mouse JNK 3 (Mus musculus)
Construct: made in house; host or cells: COS-7 cells (crude extract)
Sequence (Q61831 whole entry): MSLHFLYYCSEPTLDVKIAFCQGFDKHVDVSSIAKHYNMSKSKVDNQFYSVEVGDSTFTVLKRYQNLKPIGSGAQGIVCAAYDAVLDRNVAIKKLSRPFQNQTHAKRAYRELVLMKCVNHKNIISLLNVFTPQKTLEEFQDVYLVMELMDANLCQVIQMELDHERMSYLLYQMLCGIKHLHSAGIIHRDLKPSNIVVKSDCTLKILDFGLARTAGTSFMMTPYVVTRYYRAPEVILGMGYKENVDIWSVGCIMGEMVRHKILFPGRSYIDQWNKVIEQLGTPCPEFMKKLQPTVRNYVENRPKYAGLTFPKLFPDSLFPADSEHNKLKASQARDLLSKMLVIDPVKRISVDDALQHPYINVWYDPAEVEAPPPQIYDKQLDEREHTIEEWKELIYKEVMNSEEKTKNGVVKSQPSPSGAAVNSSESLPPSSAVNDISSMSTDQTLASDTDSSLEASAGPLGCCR
protocol: JNK 3 inhibitory activity (33P incorporation into GST-JSAP1 fused protein)
Format: biochemical
assay.setup: crude extract of COS-7 cells expressing mouse JNK 3; 3 μmol/L ATP; GST-JSAP1 substrate; 30° C., 15 minutes; read-out: JNK3 Inhibitory Activity (IC50/μM)

I am curious: what IC50 value has been reported for `O=C(Nc1ccc2[nH]nc(/C=C/c3cccnc3)c2c1)c1ccncc1` ?
< 0.5 µM

How about `CN(C)CCOc1ccc(/C=C/c2n[nH]c3ccccc23)cc1` ?
< 0.5 µM

How about `O=C(O)c1ccc2[nH]nc(/C=C/c3cccnc3)c2c1` ?
< 0.5 µM

How about `O=C(CCS(=O)(=O)c1ccccc1)Nc1ccc2[nH]nc(/C=C/c3cccnc3)c2c1` ?
1.2 µM

How about `O=C(O)/C=C/c1ccc2[nH]nc(/C=C/c3cccnc3)c2c1` ?
< 0.5 µM

---

For each of the compounds below, state its Apoptosis Suppressive Activity in 3 μmol/L of Test Compound (%).
Test system: PC12 cells
protocol: Apoptosis suppressive activity by removal of NGF in NGF-differentiated PC12 cells (MTT)
Assay type: cell-based
assay.setup: 3 μmol/L test compound; 24 hours without NGF; cells with NGF not removed = 100%, NGF removed = 0%
Give the number; % is assumed, so skip it.

Query for PC12 cells: what Apoptosis Suppressive Activity in 3 μmol/L of Test Compound (%) does the record show for O=C(Nc1ccc2[nH]nc(/C=C/c3cccnc3)c2c1)c1ccccc1 [Compound 4] ?
64

How about COC(=O)/C=C/c1ccc2[nH]nc(/C=C/c3cccnc3)c2c1 [Compound 14] ?
62

How about C(=C\c1n[nH]c2ccccc12)/c1cccnc1 [Compound 2, (E)-3-[2-(3-Pyridyl)vinyl]-1H-indazole] ?
44

How about CN(C)CCOc1ccc(/C=C/c2n[nH]c3ccccc23)cc1 [Compound 1] ?
63
